The reported numbers originate from patent US20230331803A1.

In this section, each of the substances is paired with its reported half-life.
Assay: Pharmacokinetic studies in Beagle dogs after oral administration of SNAC-based tablets
Format: in vivo
Conditions: male, Beagle, dog, in vivo, po, T½ (hr)
Starred links: 1 amine or outer side, 2 acyl side, 3 side chain; linkers in the order of their positions; H or OH if unused. Non-standard residues stand in square brackets, D forms with d. Groups on a side chain read outwards from the residue. *: point of attachment. C20 diacid = O=C(O)CCCCCCCCCCCCCCCCCCC(=O)*; C18 diacid = O=C(O)CCCCCCCCCCCCCCCCC(=O)*; C16 diacid = O=C(O)CCCCCCCCCCCCCCC(=O)*; γGlu = O=C(O)[C@H](CCC(=O)[*:2])N[*:1]; εLys = N[C@@H](CCCCN[*:1])C(=O)[*:2]; Trx = NC[C@H]1CC[C@H](C(=O)O)CC1; AEEA = NCCOCCOCC(=O)O; Aib = CC(C)(N)C(=O)O; Ahx = NCCCCCC(=O)O
Express your answer in h, writing the number without its unit.

Examples with their reported half-life follow.
H-H[Aib]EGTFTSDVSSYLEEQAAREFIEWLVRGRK([AEEA-AEEA-γGlu-Trx-C20 diacid])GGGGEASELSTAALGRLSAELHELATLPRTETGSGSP-NH2 [Compound 0503]	41
H-H[Aib]EGTFTSDVSRYLEEQAAREFIEWLVRGRK([AEEA-AEEA-γGlu-Trx-C20 diacid])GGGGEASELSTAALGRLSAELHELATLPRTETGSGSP-NH2 [Compound 0511]	25
H-H[Aib]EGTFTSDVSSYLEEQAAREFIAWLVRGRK([AEEA-AEEA-γGlu-C18 diacid])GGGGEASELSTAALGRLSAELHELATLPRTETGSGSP-NH2 [Compound 0111]	44
H-H[Aib]EGTFTSDVSK([Ahx-γGlu-γGlu-C16 diacid])YLEEQAARK([Ahx-γGlu-γGlu-C16 diacid])FIEWLVRGAAEASELSTAALGRLSAELHELATLPRTETGSGSP-NH2 [Compound 0630]	73
H-H[Aib]EGTFTSDK([AEEA-AEEA-γGlu-C16 diacid])SSYLEEQAAREFIAWLVRGRGGGGGASELSTAALGRLSK([AEEA-AEEA-γGlu-C16 diacid])ELHELATLPRTETGSGSP-NH2 [Compound 0292]	110
H-H[Aib]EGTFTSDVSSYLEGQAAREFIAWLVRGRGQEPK([AEEA-AEEA-γGlu-Trx-C20 diacid])GQAPEASELSTAALGRLSAELHELATLPRTETGSGSP-NH2 [Compound 0539]	30
H-H[Aib]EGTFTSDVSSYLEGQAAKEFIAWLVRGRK([εLys-AEEA-AEEA-γGlu-C18 diacid])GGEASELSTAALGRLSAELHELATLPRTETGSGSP-NH2 [Compound 0045]	41
H-H[Aib]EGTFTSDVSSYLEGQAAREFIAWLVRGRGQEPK([AEEA-AEEA-γGlu-C20 diacid])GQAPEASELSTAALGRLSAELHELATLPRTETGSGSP-NH2 [Compound 0529]	68

Reported half-life ( H-H[Aib]EGTFTSDVSK([AEEA-AEEA-γGlu-C16 diacid])YLEEQAAREFIAWLVRGRK([AEEA-AEEA-γGlu-C16 diacid])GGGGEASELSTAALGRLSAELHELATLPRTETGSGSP-NH2 [Compound 0528] ) = 107

----------
Biological target: human GLP-1 receptor (Homo sapiens)
Construct: expressed in transfected cells; host or cells: BHK (Baby Hamster Kidney) cells, clone BHK 467-12A KZ-10, stably transfected, with CRE-luciferase reporter
Assay: Human GLP-1 receptor in vitro potency assay (CRE-luciferase reporter, BHK cells)
Type: cell-based
Details: Table 4a; BHK cells expressing human GLP-1R, CRE-Luc, 3 hours; read-out: Human GLP-1R potency [EC50 (pM)]
Starred links: 1 amine or outer side, 2 acyl side, 3 side chain; linkers in the order of their positions; H or OH if unused. Non-standard residues stand in square brackets, D forms with d. Groups on a side chain read outwards from the residue. *: point of attachment. C20 diacid = O=C(O)CCCCCCCCCCCCCCCCCCC(=O)*; C18 diacid = O=C(O)CCCCCCCCCCCCCCCCC(=O)*; C16 diacid = O=C(O)CCCCCCCCCCCCCCC(=O)*; γGlu = O=C(O)[C@H](CCC(=O)[*:2])N[*:1]; Trx = NC[C@H]1CC[C@H](C(=O)O)CC1; AEEA = NCCOCCOCC(=O)O; Aib = CC(C)(N)C(=O)O; Ahx = NCCCCCC(=O)O
property-name: EC50

Examples with their reported EC50 follow.
H-H[Aib]EGTFTSDK([AEEA-AEEA-γGlu-C16 diacid])SSYLEEQAAREFIAWLVRGRGGGGGEASELSTAALGRLSAELHK([AEEA-AEEA-γGlu-C16 diacid])LATLPRTETGSGSP-NH2 [Compound 0259]	15.8 pM
H-H[Aib]EGTFTSDVSK([Ahx-γGlu-γGlu-C16 diacid])YLEEQAARK([Ahx-γGlu-γGlu-C16 diacid])FIEWLVRGAAEASELSTAALGRLSAELHELATLPRTETGSGSP-NH2 [Compound 0630]	7.1 pM

Reported EC50 ( H-H[Aib]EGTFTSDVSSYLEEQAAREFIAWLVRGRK([AEEA-AEEA-γGlu-Trx-C20 diacid])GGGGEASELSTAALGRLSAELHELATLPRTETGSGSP-NH2 [Compound 0120] ) = 9.1 pM

Reported EC50 ( H-H[Aib]EGTFTSDVSSYLEGQAAREFIAWLVRGRGQEPGQAPK([AEEA-AEEA-γGlu-C18 diacid])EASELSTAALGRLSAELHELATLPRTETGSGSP-NH2 [Compound 0085] ) = 2.2 pM

Reported EC50 ( H-H[Aib]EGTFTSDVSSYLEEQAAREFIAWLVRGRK([AEEA-AEEA-γGlu-C18 diacid])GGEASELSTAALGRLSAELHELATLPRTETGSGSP-NH2 [Compound 0114] ) = 1 pM

----------
Molecular target: human GLP-1 receptor (Homo sapiens, UniProt P43220)
Construct: expressed in transfected cells; host or cells: BHK (Baby Hamster Kidney) cells, clone BHK 467-12A KZ-10, stably transfected, with CRE-luciferase reporter
Sequence (P43220 24-463): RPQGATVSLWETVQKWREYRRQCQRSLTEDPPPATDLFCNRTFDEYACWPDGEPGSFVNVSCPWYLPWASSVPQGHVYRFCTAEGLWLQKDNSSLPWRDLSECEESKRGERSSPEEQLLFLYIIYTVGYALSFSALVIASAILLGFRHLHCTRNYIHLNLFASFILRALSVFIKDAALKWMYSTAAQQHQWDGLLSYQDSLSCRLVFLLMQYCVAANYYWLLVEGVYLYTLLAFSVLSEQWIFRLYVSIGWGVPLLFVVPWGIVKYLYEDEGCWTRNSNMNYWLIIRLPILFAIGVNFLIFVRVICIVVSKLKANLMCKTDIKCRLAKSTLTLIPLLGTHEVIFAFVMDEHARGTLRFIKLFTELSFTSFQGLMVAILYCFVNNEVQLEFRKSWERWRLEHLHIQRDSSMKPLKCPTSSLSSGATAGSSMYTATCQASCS
Experiment: Human GLP-1 receptor in vitro potency assay (CRE-luciferase reporter, BHK cells)
Format: cell-based
Settings: Table 4a; BHK cells expressing human GLP-1R, CRE-Luc, 3 hours; read-out: Human GLP-1R potency [EC50 (pM)]
Starred links: 1 amine or outer side, 2 acyl side, 3 side chain; linkers in the order of their positions; H or OH if unused. Non-standard residues stand in square brackets, D forms with d. Groups on a side chain read outwards from the residue. *: point of attachment. C20 diacid = O=C(O)CCCCCCCCCCCCCCCCCCC(=O)*; C18 diacid = O=C(O)CCCCCCCCCCCCCCCCC(=O)*; γGlu = O=C(O)[C@H](CCC(=O)[*:2])N[*:1]; Desaminohistidyl = O=C(CCc1c[nH]cn1)*; εLys = N[C@@H](CCCCN[*:1])C(=O)[*:2]; Trx = NC[C@H]1CC[C@H](C(=O)O)CC1; AEEA = NCCOCCOCC(=O)O; Aib = CC(C)(N)C(=O)O
In this section, each of the substances is paired with its reported EC50.
Express your answer in pM, writing the number without its unit.

Examples with their reported EC50 follow.
H-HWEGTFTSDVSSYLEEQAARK([εLys-AEEA-AEEA-γGlu-Trx-C20 diacid])FIEWLVRGRGEASELSTAALGRLSAELHELATLPRTETGSGSP-NH2 [Compound 0437]	12
Desaminohistidyl-AEGTFTSDVSSYLEEQAAREFIAWLVRGRK([AEEA-AEEA-γGlu-Trx-C20 diacid])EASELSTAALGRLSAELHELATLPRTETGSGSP-NH2 [Compound 0035]	16.7

Reported EC50 ( H-H[Aib]EGTFTSDVSSYLEGQAAK([AEEA-AEEA-γGlu-C18 diacid])EFIAWLVRGRGGGEASELSTAALGRLSAELHELATLPRTETGSGSP-NH2 [Compound 0007] ) = 13.3
